Cited source: paper PMC6321168

Protocol Notes: Fecal excretion study in rats after oral NS, SF or CNS (LC–MS/MS)
Assay type: in vivo
Run Conditions: rat feces, oral NS 60 mg/kg, 96 h
Description: The animal room was set at constant temperature of 20 ± 2 °C with humidity of 50 ± 20% and 12/12 h light/dark cycle. Eighteen male rats were fasted for 12 h before starting the experiment. […] The urine volume was recorded and the dry feces were measured for each collection period. […] The accumulative excretion percentage was calculated for each analyte as follows. […]
Experimental Readout: Excretion amount (µg)

# Compound, Result Value
measured = [
    ("CC(C)=CCC[C@](C)(O[C@@H]1O[C@H](CO)[C@@H](O)[C@H](O)[C@H]1O)[C@H]1CC[C@]2(C)[C@@H]1[C@H](O)C[C@@H]1[C@@]3(C)CC[C@H](O)C(C)(C)[C@@H]3[C@@H](O[C@@H]3O[C@H](CO)[C@@H](O)[C@H](O)[C@H]3O[C@@H]3O[C@@H](C)[C@H](O)[C@@H](O)[C@H]3O)C[C@]12C [ginsenoside Re]", 0.262),
    ("CC(C)=CCC[C@](C)(O[C@@H]1O[C@H](CO)[C@@H](O)[C@H](O)[C@H]1O)[C@H]1CC[C@]2(C)[C@@H]1[C@H](O)C[C@@H]1[C@@]3(C)CC[C@H](O[C@@H]4O[C@H](CO)[C@@H](O)[C@H](O)[C@H]4O[C@@H]4O[C@H](CO)[C@@H](O)[C@H](O)[C@H]4O)C(C)(C)[C@@H]3CC[C@]12C [ginsenoside Rd]", 0.241),
    ("CC(C)=CCC[C@](C)(O[C@@H]1O[C@H](CO)[C@@H](O)[C@H](O)[C@H]1O)[C@H]1CC[C@]2(C)[C@@H]1[C@H](O)C[C@@H]1[C@@]3(C)CC[C@H](O)C(C)(C)[C@@H]3[C@@H](O[C@@H]3O[C@H](CO)[C@@H](O)[C@H](O)[C@H]3O)C[C@]12C [ginsenoside Rg1]", 0.327),
]

----------
Protocol Notes: Urinary excretion study in rats after oral NS, SF or CNS (LC–MS/MS)
Format: in vivo
Run Conditions: rat urine, oral CNS 110 mg/kg, 36 h
Each entry below carries its recorded Excretion amount.
Experimental Readout: Excretion amount

# Molecule, Result Value
rows = [
    ("CC(C)=CCC[C@](C)(O[C@@H]1O[C@H](CO)[C@@H](O)[C@H](O)[C@H]1O)[C@H]1CC[C@]2(C)[C@@H]1[C@H](O)C[C@@H]1[C@@]3(C)CC[C@H](O[C@@H]4O[C@H](CO)[C@@H](O)[C@H](O)[C@H]4O[C@@H]4O[C@H](CO)[C@@H](O)[C@H](O)[C@H]4O)C(C)(C)[C@@H]3CC[C@]12C [ginsenoside Rd]", "0.011 ± 0.009 µg"),
    ("CC(C)=CCC[C@](C)(O[C@@H]1O[C@H](CO[C@@H]2O[C@H](CO)[C@@H](O)[C@H](O)[C@H]2O)[C@@H](O)[C@H](O)[C@H]1O)[C@H]1CC[C@]2(C)[C@@H]1[C@H](O)C[C@@H]1[C@@]3(C)CC[C@H](O[C@@H]4O[C@H](CO)[C@@H](O)[C@H](O)[C@H]4O[C@@H]4O[C@H](CO)[C@@H](O)[C@H](O)[C@H]4O)C(C)(C)[C@@H]3CC[C@]12C [ginsenoside Rb1]", "0.197 ± 0.129 µg"),
    ("CC(C)=CCC[C@](C)(O[C@@H]1O[C@H](CO)[C@@H](O)[C@H](O)[C@H]1O)[C@H]1CC[C@]2(C)[C@@H]1[C@H](O)C[C@@H]1[C@@]3(C)CC[C@H](O)C(C)(C)[C@@H]3[C@@H](O[C@@H]3O[C@H](CO)[C@@H](O)[C@H](O)[C@H]3O[C@@H]3O[C@@H](C)[C@H](O)[C@@H](O)[C@H]3O)C[C@]12C [ginsenoside Re]", "0.030 ± 0.037 µg"),
]
